# Tested on: HT29 colon
# Assay procedure: NCI tumour cell line growth inhibition, 48 h; in the data active means GI50 below about 0.43 µM; inactive means the rest
Tick one outcome: y for active, n for inactive

### Prompt // outcome(item) with item = O=C1c2cccc(NCCN=Cc3ccccc3O)c2C(=O)c2c(NCCN=Cc3ccccc3O)cccc21
### Response y

### Prompt Next record, please: NC(N)=N/N=C/c1ccc(-c2ccc(-c3cc(Cl)cc(Cl)c3)s2)cc1
### Response n

### Prompt Next entry: COc1cc2c(cc1Nc1nc(Nc3cccc(F)c3C(N)=O)c3cc[nH]c3n1)N(C(=O)CN1CCN(C(C)C)CC1)CC2
### Response n

### Prompt Item: c1ccc2cc(C[n+]3ccn(CCCCCCCCCCn4cc[n+](Cc5ccc6ccccc6c5)c4)c3)ccc2c1
### Response n

### Prompt And the next one, O=S(=O)(/N=c1/scc(-c2ccccc2)n1-c1ccccc1)c1ccc(N2N=C3c4ccccc4CC3C2c2cccs2)cc1 (centres undefined) ?
### Response n

### Prompt Please answer likewise for CCCCCCCCn1ccc2cc(NC(=O)Cn3cc(CN4CCCCC4)nn3)ccc21
### Response n

### Prompt Now give it for COc1cc([N+](=O)[O-])c(OC)cc1-c1nc2sc(Cl)cn2c1/C=N/NC1=NCCN1 too.
### Response y

### Prompt Also O=C(Nc1ccccc1)c1cc(S(=O)(=O)Nc2nc3ccccc3o2)c(SCc2ccccc2)cc1Cl ?
### Response n

### Prompt Can you handle CCN1Cc2nc3sc(C)c(C)c3c(=O)n2C=C1C next?
### Response n

###

# Test system: SNB-75 CNS
# Assay procedure: NCI tumour cell line growth inhibition, 48 h
Measurement name: TGI (nM)
Return type: number; implicit unit nM.

### Prompt May I ask what TGI has been recorded for CCCCCCCCCCCCCCCCC(=O)O.CCCCCCCCCCCCCCCCCC(=O)O.CCCCCCCCCCCCCCCCCC(=O)O.CCCCCCCCCCCCCCCCCC(=O)O.CCCCCCCCCCCCCCCCCC(=O)O.CO[CH-]OC12COC1CC(O)C1(C)C(O)C(OC(C)O)C3=C(C)C(OC(=O)C(O)C([NH-])c4ccccc4)CC(O)(C(OC(=O)c4ccccc4)C21)C3(C)C.[Cu+].[Zn].[Zn].[Zn].[Zn].[Zn] (configuration not stated) ?
### Response 21.1

###

# System: UACC-62 melanoma
# Assay procedure: NCI tumour cell line growth inhibition, 48 h
Please respond with reported log10(TGI) for every item in the list.
Log scale reminder: TGI in µM, then log10 taken.

### Prompt // lookup log10(TGI) for CC(C)(C)c1c2c(c(C(C)(C)C)c3c1OCN(Cc1ccccc1)C3)OCN(Cc1ccccc1)C2
### Response 1.59

### Prompt Another: CCN(CC)C1CCC(Nc2c(C(C)=O)cnc3ccc(-c4ccc(O)c(Cl)c4)cc23)CC1 (stereo unspecified)
### Response 1.40

### Prompt CCOC(=O)C(NC(=O)c1ccccc1)(Nc1ccc(Cl)cc1C(F)(F)F)C(F)(F)F (stereo unspecified) , same question.
### Response 1.44

### Prompt Follow-up entry: O=C1c2cccc(NCCN=Cc3ccccc3O)c2C(=O)c2c(NCCN=Cc3ccccc3O)cccc21
### Response 0.69

### Prompt One more compound: CN(Cc1cc(Cl)cc(Cl)c1O)Cc1c(O)ccc2ccccc12
### Response 1.47

### Prompt Again, but for COc1ccc(C2C3CCc4ccccc4C3=NN2S(=O)(=O)c2ccc(/C=C/C(=O)O)cc2)cc1 (stereo unspecified)
### Response 1.38

### Prompt Same read-out for CCN(CC)Cc1c(/C=C\c2cc(OC)c(OC)c(OC)c2)ccc(OC)c1O ?
### Response 1.44

### Prompt Same read-out for O=C(OCc1ccccc1)N(CCCCN(CCCNCc1ccccc1)C(=O)OCc1ccccc1)CCCNCc1ccccc1 ?
### Response 0.50

### Prompt Try the compound COc1cc(/C=C2\C[C@H]3[C@@H]4CC=C5C[C@@H](O)CC[C@]5(C)[C@H]4CC[C@]3(C)[C@H]2O)ccc1OCCCn1ccnc1
### Response 0.82

### Prompt Field entry: COc1ccc(/C=C/C(=O)c2ccc(OC)c(OC)c2)cc1O
### Response 1.39

### Prompt And for CN1CN(c2ccccc2)C2(CCN(CCC3COc4ccccc4O3)CC2)C1=O (stereo unspecified) ?
### Response 1.96

### Prompt Entry to check: O=c1oc2ccc(Br)cc2c(=O)n1-c1ccc(I)cc1F
### Response -0.05

### Prompt Do the same for Cc1cc(C(C)(C)C)cc(CNC2CCCCC2)c1O please
### Response 1.47

### Prompt What would you report for CC(=O)Oc1ccc(/C(=C(\C)c2ccc(Cl)cc2)c2ccc(OCCN3CCCCC3)cc2)cc1 ?
### Response 0.57

### Prompt And then CCN(CC)CCNc1ccc2nnn3c4ccc(O)cc4c(=O)c1c23 , what is it?
### Response 1.34

### Prompt And the next one, CCCCCC/C=C1\CCC(CN2CCOCC2)C1=O (stereo unspecified) ?
### Response 1.51

### Prompt Follow-up item: CC(=O)OC1CC2C3CCC4C[C@@H](NC(=O)C=C(C)C)CC[C@]4(C)C3CC[C@]2(C)[C@H]1C(C)N(C)C (stereo partly specified)
### Response 0.65

### Prompt Same question, Cc1ccccc1-n1c2nc(=O)n(C)c(=O)c-2nc2ccccc21 this time
### Response 0.99

### Prompt Would you kindly repeat that for O=C1C=CC(=O)c2c1ccc1c3ccccc3n(-c3ccccc3[N+](=O)[O-])c21 ?
### Response 1.01

###

Please respond with reported TGI for every item in the list.
# Tested on: MDA-MB-435
# Assay procedure: NCI tumour cell line growth inhibition, 48 h
Expressed in µM, but write only the number.

### Prompt For the molecule COc1cc(-c2[o+]c3cc(O)cc(O)c3cc2O)cc(O)c1O , what TGI is on record?
### Response 38.3

### Prompt CCN(CC)CCNc1ccc2nnn3c4ccc(O)cc4c(=O)c1c23 , same question.
### Response 17.4

### Prompt And CSc1ccc(/C=C2\N=C(c3ccccc3)N(c3nc4cc(C)c(C)cc4s3)C2=O)cc1 ?
### Response 37.7

### Prompt Also check Cc1ccc(S(=O)c2sccc2C=O)cc1 (centres undefined)
### Response 62.6

###

# Test system: MCF7 breast
# Assay procedure: NCI tumour cell line growth inhibition, 48 h
Measurement name: GI50

### Prompt Which value of GI50 has been reported for Clc1ccc(-c2cc(-c3ccccc3)nc(NCCNc3ccnc4cc(Cl)ccc34)n2)cc1 in the records?
### Response 1720 nM

### Prompt And what about the compound COc1cc(C(=O)N/N=C/c2ccc(N(C)C)cc2)cc(OC)c1OC ?
### Response 340 nM

### Prompt // next record COc1ccc(Nc2cc(C)nc(NCCCNc3ccnc4cc(Cl)ccc34)n2)cc1
### Response 1160 nM

### Prompt Same thing, different compound: O=C(c1ccco1)c1c(C(F)(F)F)n([O-])c2ccc(Cl)cc2[n+]1=O
### Response 443 nM

### Prompt Same lookup for Cn1c(=O)c(Oc2ccc(F)cc2F)cc2cnc(NC3CCS(=O)(=O)CC3)nc21 , please.
### Response > 25000 nM

###

# Tested on: SNB-75 CNS
# Assay procedure: NCI tumour cell line growth inhibition, 48 h
Hi there, I'd appreciate the recorded GI50 for every entry that follows.

### Prompt Returns the measured GI50 for the input molecule. Input: CC(=O)OC1CC2C3CCC4C[C@@H](NC(=O)C=C(C)C)CC[C@]4(C)C3CC[C@]2(C)[C@H]1C(C)N(C)C (stereo not given in full)
### Response 2 µM

### Prompt Query Cc1c(O)c2c(c(O)c1Br)C(=O)C=CC2=O next
### Response 2.1 µM

### Prompt How about this molecule: COc1cc(-c2cc(-c3cc(OC)c(OC)c(OC)c3)nc3nc(N)[nH]c(=O)c23)ccc1Oc1ccnc2cc(Cl)ccc12
### Response 1.9 µM

### Prompt Thanks! And CCCCCCCCn1ccc2cc(NC(=O)Cn3cc(CN4CCCCC4)nn3)ccc21 ?
### Response 1.51 µM

### Prompt Lookup CCCCCCCCC(=O)OCC(CS[As](C)C)OC(=O)CCCCCCCC (stereo not given)
### Response 5.44 µM

###

Give TGI for every item shown.
# Tested on: DLD-1 colon
# Assay procedure: NCI tumour cell line growth inhibition, 48 h

### Prompt TGI for Clc1ccc(-c2c(C3=NCCCN3)nnn2-c2ccccc2)cc1 ?
### Response > 100 µM

### Prompt Now try CC1=CC(N2C(=O)C(C)=CC2O)NC1=O (stereo not given) .
### Response > 100 µM

### Prompt And for Nc1cc(=O)n(-c2ccccc2)c(=S)n1-c1ccccc1 ?
### Response > 100 µM

### Prompt Next: COC1(O)c2cccc(Cl)c2C(=O)N1C1(C(N)=O)CCCCC1 (stereo not given)
### Response > 100 µM

### Prompt Also COc1ccccc1NC(=O)c1nc2ccc([N+](=O)[O-])cc2nc1C , if possible.
### Response > 100 µM
